conditions: mouse, in vivo, iv, 4 mg/kg, Terminal half-life
Numbered stars: 1 amine (or outer) side, 2 acyl side, 3 side chain; on linkers, the order of the positions; unused ones are H or OH. Square brackets hold non-standard residues; d marks the D form. Peptide text beside a SMILES is read from it. βAla(3R-(1-naphthyl)) = O=C(C[C@@H](N[*:1])c1cccc2ccccc12)[*:2]
measured_parameter: half-life

N=C(N)NCCC[C@@H]1NC(=O)[C@H]2CCCN2C(=O)[C@@H]2CCCN2C(=O)[C@H](CCCNC(=N)N)NC(=O)C[C@H](c2cccc3ccccc23)NC(=O)[C@H](Cc2ccccc2)NC(=O)[C@H](CC(=O)O)NC(=O)[C@H](CC(=O)O)NC(=O)[C@H](Cc2ccccc2)NC(=O)C[C@H](c2cccc3ccccc23)NC1=O [Compound 18] (cyclo(DDF[βAla(3R-(1-naphthyl))]RP[dP]R[βAla(3R-(1-naphthyl))]F))	~42 h

====

test: in vitro; conditions: simulated gi fluid
Numbered stars: 1 amine (or outer) side, 2 acyl side, 3 side chain; on linkers, the order of the positions; unused ones are H or OH. Square brackets hold non-standard residues; d marks the D form. Peptide text beside a SMILES is read from it. βAla(3R-(1-naphthyl)) = O=C(C[C@@H](N[*:1])c1cccc2ccccc12)[*:2]
measured_parameter: remaining at 6 h, 10 µM

N=C(N)NCCC[C@@H]1NC(=O)[C@H]2CCCN2C(=O)[C@@H]2CCCN2C(=O)[C@H](CCCNC(=N)N)NC(=O)C[C@H](c2cccc3ccccc23)NC(=O)[C@H](Cc2ccccc2)NC(=O)[C@H](CC(=O)O)NC(=O)[C@H](CC(=O)O)NC(=O)[C@H](Cc2ccccc2)NC(=O)C[C@H](c2cccc3ccccc23)NC1=O [Compound 18] (cyclo(DDF[βAla(3R-(1-naphthyl))]RP[dP]R[βAla(3R-(1-naphthyl))]F))	> 80%

Origin of the recorded values: paper PMC7477407
